# testName: AUClast in female cynomolgus monkey at 30 mg/kg,po by LC-MS/MS analysis
# Type: ADME, organism-based, Macaca fascicularis
# Design: dose 30 mg/kg, route po
# settings: in vivo
assayMetric: AUC(0-t) (µg·h/mL)

                          chemicalstructure  reportedvalue
0  CCOC(=O)C1=C(CN2CCN3C(=O)N(CC(C)(C)C(=O)O)C[C@@H]3C2)NC(c2nccs2)=N[C@H]1c1cccc(F)c1C           3.15

====

# testName: AUC (0-infinity) in rat plasma at 1 mg/kg,iv
# Format: ADME, organism-based
# Parameters: dose 1 mg/kg, route iv
# settings: plasma
assayMetric: AUC(0-inf) (µg·h/mL)

                          chemicalstructure  reportedvalue
0  CCOC(=O)C1=C(CN2CCN3C(=O)N(CC(C)(C)C(=O)O)C[C@@H]3C2)NC(c2nccs2)=N[C@H]1c1cccc(F)c1Cl          0.257

====

# testName: Volume of distribution at steady state in minipig at 2 mg/kg,iv by LC-MS/MS analysis
# Format: ADME, organism-based, Sus scrofa domesticus
# settings: pig, in vivo, read-out: Vdss
assayMetric: Vd (L/kg)

>>> df
                                   compound  reportedvalue
0  CCOC(=O)C1=C(CN2CCN3C(=O)N(CC(C)(C)C(=O)O)C[C@@H]3C2)NC(c2nccs2)=N[C@H]1c1cccc(F)c1C [LINVENCORVIR]           1.12

====

# testName: Volume of distribution at steady state in mouse plasma at 1 mg/kg,iv
# Format: ADME, organism-based
# settings: read-out: Vdss
assayMetric: Vd (L/kg)

>>> df
                          chemicalstructure  assaymetric  unitslabel  reportedvalue
0  CCOC(=O)C1=C(CN2C[C@H]3CN(C(C)(C)C)C(=O)N3C[C@@H]2C(=O)O)NC(c2nccs2)=N[C@H]1c1ccc(F)cc1Cl           Vd        L/kg            5.2
1  CCOC(=O)C1=C(CN2CCN3C(=O)N(CC(C)(C)C(=O)O)C[C@@H]3C2)NC(c2nccs2)=N[C@H]1c1cccc(F)c1C           Vd        L/kg              1
2  CCOC(=O)C1=C(CN2CCN3C(=O)N(CC(C)(C)C(=O)O)C[C@@H]3C2)NC(c2nccs2)=N[C@H]1c1cccc(F)c1Cl           Vd        L/kg            1.3
3  CCOC(=O)C1=C(CN2CCN3C(=O)N(CC(C)(C)C(=O)O)C[C@@H]3C2)NC(c2nccs2)=N[C@H]1c1ccc(F)cc1Cl           Vd        L/kg            2.2

====

# testName: Oral bioavailability in male Wistar Han rat at 3 mg/kg by LC-MS/MS analysis
# Assay type: ADME, organism-based
# settings: in vivo
assayMetric: bioavailability (%)

In [3]: df
Out[3]:
                          chemicalstructure  unitslabel  reportedvalue
0  CCOC(=O)C1=C(CN2CCN3C(=O)N(CC(C)(C)C(=O)O)C[C@@H]3C2)NC(c2nccs2)=N[C@H]1c1cccc(F)c1C           %           13.5

Hey, just so you know, these numbers are from ChEMBL document CHEMBL5316357.
